Target: T1, Myo5, Q04439
T1 sequence (Q04439 1072-1160, looked up): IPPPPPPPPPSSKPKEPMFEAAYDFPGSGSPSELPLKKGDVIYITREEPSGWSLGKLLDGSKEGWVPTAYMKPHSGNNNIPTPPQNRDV
Experiment: SPOT array
Conditions: median of control spots 471
readout_kind: SPOT intensity

binder | value_observed
ILARAILTIPRVLDK | 3
TKIRRRPQQPLTDFT | 2
ITHRLRISIPGITGR | 4

(a) FIRKRAPTPPAPSRS
(b) PIVPSSPAPPLPLSG
(c) DHPKGPPPPPPPDEK
(d) DGNEEKPLLPTRPNK
(e) VRVKKRPLIRPLNSS
Exercise: Arrange these binders by their SPOT intensity, starting with the largest number. Present the labels in the sequence the task asks for.
Solution: b, c, a, e, d
